Parameter IC90: see the listing below.
# TARGET_UNDER_TEST: APOL1 G1 (Homo sapiens, UniProt O14791, I384M/S342G)
# ASSAY_EXPLANATION: MultiTox-Fluor Multiplex Cytotoxicity Assay, tet-inducible APOL1 G1 T-REx-HEK293 cells
# Assay type: cell-based
# Set-up: expressed in transfected cells; host or cells: T-REx HEK293, clone G1 DC3.25 (pAAVS1-Puro-APOL1 G1)
# CONDITION: HEK293, Multi-Tox Assay; APOL1 variant (G0/G1/G2) of the HEK293 cells not given; read-out: Multi-Tox Assay IC90

Prompt: Please give the measured IC90 for this molecule: C[C@H]1C[C@@]2(C[C@@H](c3cnc(C4CCOCC4)o3)N1)OCCc1cc(Cl)sc12 (racemic)
Completion: 0.05 to 0.5 µM

Prompt: Please give the measured IC90 for this molecule: Cc1cc([C@@H]2C[C@]3(C[C@H](C)N2)OCCc2cc(Cl)sc23)nn1C (racemic)
Completion: < 0.05 µM

Prompt: Please give the measured IC90 for this molecule: Cc1ncoc1[C@@H]1C[C@]2(C[C@H](C)N1)OCCc1cc(Cl)sc12 (racemic)
Completion: > 0.5 µM

----------
Parameter IC90: see the listing below.
# TARGET_UNDER_TEST: APOL1 G1 (Homo sapiens, UniProt O14791, I384M/S342G)
# ASSAY_EXPLANATION: MultiTox-Fluor Multiplex Cytotoxicity Assay, tet-inducible APOL1 G1 T-REx-HEK293 cells
# Type: cell-based
# Parameters: expressed in transfected cells; host or cells: T-REx HEK293, clone G1 DC3.25 (pAAVS1-Puro-APOL1 G1)
# CONDITION: HEK293, Multi-Tox Assay; APOL1 variant (G0/G1/G2) of the HEK293 cells not given; read-out: Multi-Tox Assay IC90

>  <MOLECULE>
Cc1n[nH]c2ncc([C@@H]3C[C@]4(C[C@H](C)N3)OCCc3cc(Cl)sc34)cc12 (racemic)

>  <IC90>
< 50 nM

$$$$

Prompt: Please give the measured IC90 for this molecule: COC(=O)[C@@H]1C[C@]2(C[C@@H](C)N1)OCCc1cc(Cl)sc12 (stereo in doubt)
Completion: > 500 nM

Prompt: Please give the measured IC90 for this molecule: C[C@H]1C[C@@]2(C[C@@H](c3cn(CC(N)=O)nn3)N1)OCCc1cc(Cl)sc12 (racemic)
Completion: 50 to 500 nM

----------
Parameter Multi-Tox Assay Max Activity (%): see the listing below.
# TARGET_UNDER_TEST: APOL1 G1 (Homo sapiens, UniProt O14791, I384M/S342G)
# ASSAY_EXPLANATION: MultiTox-Fluor Multiplex Cytotoxicity Assay, tet-inducible APOL1 G1 T-REx-HEK293 cells
# Format: cell-based
# Set-up: expressed in transfected cells; host or cells: T-REx HEK293, clone G1 DC3.25 (pAAVS1-Puro-APOL1 G1)
# CONDITION: Multi-Tox Assay; APOL1 variant not given
# Procedure: The MultiTox-Fluor Multiplex Cytotoxicity Assay is a single-reagent-addition, homogeneous, fluorescence assay that measures the number of live and dead cells simultaneously in culture wells. […] The live-cell protease activity is restricted to intact viable cells and is measured using a fluorogenic, cell-permeant peptide glycyl-phenylalanylamino fluorocoumarin (GF-AFC) substrate. […] Assay ready plates from the Global Compound Archive were ordered using template 384_APOL1Cell_DR10n2_50uM_v3. […]
Kindly answer with a numeric value in %, unit omitted.

>  <COMPOUND>
C[C@H]1C[C@@]2(C[C@@H](c3cn(Cc4ccc(S(C)(=O)=O)cc4)nn3)N1)OCC(F)(F)c1cc(Cl)sc12

>  <UOM>
%

>  <Multi-Tox Assay Max Activity (%)>
98.0

$$$$
>  <COMPOUND>
C[C@H]1C[C@@]2(C[C@@H](c3cn(CC4(CO)CC4)nn3)N1)OC[C@@H](O)c1cc(Cl)sc12

>  <UOM>
%

>  <Multi-Tox Assay Max Activity (%)>
97.0

$$$$
>  <COMPOUND>
C[C@H]1C[C@@]2(C[C@@H](c3cn(Cc4cccc5c4OCCO5)nn3)N1)OCC(F)(F)c1cc(Cl)sc12

>  <UOM>
%

>  <Multi-Tox Assay Max Activity (%)>
94.0

$$$$

Prompt: Give Multi-Tox Assay Max Activity (%) (APOL1 G1 (Homo sapiens, UniProt O14791, I384M/S342G)) of the following compound: C[C@H]1C[C@@]2(C[C@@H](c3cc(C4CCOCC4)[nH]n3)N1)OCCc1cc(Cl)sc12
Completion: 99.7

Prompt: Give Multi-Tox Assay Max Activity (%) (APOL1 G1 (Homo sapiens, UniProt O14791, I384M/S342G)) of the following compound: CCOc1ccc([C@@H]2C[C@]3(C[C@H](C)N2)OCCc2cc(Cl)sc23)cc1O (racemic)
Completion: 99.7

Prompt: Give Multi-Tox Assay Max Activity (%) (APOL1 G1 (Homo sapiens, UniProt O14791, I384M/S342G)) of the following compound: C[C@H]1C[C@@]2(C[C@@H](c3cn(Cc4n[nH]c5ccccc45)nn3)N1)OC[C@@H](O)c1cc(Cl)sc12
Completion: 100.0

Prompt: Give Multi-Tox Assay Max Activity (%) (APOL1 G1 (Homo sapiens, UniProt O14791, I384M/S342G)) of the following compound: Cc1cc([C@@H]2C[C@]3(C[C@H](C)N2)OCCc2cc(Cl)sc23)nc(N(C)C)n1 (racemic)
Completion: 98.0

----------
Parameter IC90: see the listing below.
# TARGET_UNDER_TEST: APOL1 G1 (Homo sapiens, UniProt O14791, I384M/S342G)
# ASSAY_EXPLANATION: MultiTox-Fluor Multiplex Cytotoxicity Assay, tet-inducible APOL1 G1 T-REx-HEK293 cells
# Assay type: cell-based
# Parameters: expressed in transfected cells; host or cells: T-REx HEK293, clone G1 DC3.25 (pAAVS1-Puro-APOL1 G1)
# CONDITION: HEK293, Multi-Tox Assay; APOL1 variant (G0/G1/G2) of the HEK293 cells not given; read-out: Multi-Tox Assay IC90

>  <COMPOUND>
C[C@H]1C[C@@]2(C[C@@H](c3cn(CC4(F)CCOCC4)nn3)N1)OC[C@@H](O)c1cc(Cl)sc12

>  <RESULT>
> 0.5 µM

$$$$
>  <COMPOUND>
C[C@H]1C[C@@]2(C[C@@H](c3cn(CC4CCC(=O)NC4)nn3)N1)OC[C@@H](O)c1cc(Cl)sc12 (stereo partly shown)

>  <RESULT>
> 0.5 µM

$$$$
>  <COMPOUND>
C[C@H]1C[C@@]2(C[C@@H](c3cn(Cc4n[nH]c5ccccc45)nn3)N1)OC[C@@H](O)c1cc(Cl)sc12

>  <RESULT>
0.05 to 0.5 µM

$$$$
>  <COMPOUND>
C[C@H]1C[C@@]2(C[C@@H](c3cnn(-c4ccccc4)c3)N1)OCCc1cc(Cl)sc12 (racemic)

>  <RESULT>
< 0.05 µM

$$$$

Prompt: Please give the measured IC90 for this compound: Cc1ncc([C@@H]2C[C@]3(C[C@H](C)N2)OCCc2cc(Cl)sc23)o1 (racemic)
Completion: < 0.05 µM

Prompt: Please give the measured IC90 for this compound: COc1ccc(Cn2cc([C@@H]3C[C@]4(C[C@H](C)N3)OC[C@@H](O)c3cc(Cl)sc34)nn2)cc1F
Completion: 0.05 to 0.5 µM

Prompt: Please give the measured IC90 for this compound: C[C@H]1C[C@@]2(C[C@@H](c3cc(C4CC4)n[nH]3)N1)OCCc1cc(Cl)sc12 (racemic)
Completion: 0.05 to 0.5 µM

----------
Parameter IC90: see the listing below.
# TARGET_UNDER_TEST: APOL1 G1 (Homo sapiens, UniProt O14791, I384M/S342G)
# Sequence (O14791 28-398 S342G/I384M): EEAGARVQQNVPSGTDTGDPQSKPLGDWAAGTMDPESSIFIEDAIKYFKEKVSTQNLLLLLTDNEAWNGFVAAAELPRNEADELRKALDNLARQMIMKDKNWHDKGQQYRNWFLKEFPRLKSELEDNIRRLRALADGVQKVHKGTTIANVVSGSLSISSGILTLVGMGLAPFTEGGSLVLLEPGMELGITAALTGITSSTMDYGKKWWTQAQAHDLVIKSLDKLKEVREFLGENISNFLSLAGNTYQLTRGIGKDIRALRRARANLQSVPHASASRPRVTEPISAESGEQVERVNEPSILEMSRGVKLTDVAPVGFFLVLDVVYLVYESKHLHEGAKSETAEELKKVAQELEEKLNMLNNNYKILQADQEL
# ASSAY_EXPLANATION: MultiTox-Fluor Multiplex Cytotoxicity Assay, tet-inducible APOL1 G1 T-REx-HEK293 cells
# Format: cell-based
# Parameters: expressed in transfected cells; host or cells: T-REx HEK293, clone G1 DC3.25 (pAAVS1-Puro-APOL1 G1)
# CONDITION: HEK293, Multi-Tox Assay; APOL1 variant (G0/G1/G2) of the HEK293 cells not given; read-out: Multi-Tox Assay IC90

Record excerpt, results attached:
>  <COMPOUND>
Cc1ncc(Cn2cc([C@@H]3C[C@]4(C[C@H](C)N3)OCC(F)(F)c3cc(Cl)sc34)nn2)cn1 [Compound 318]

>  <TARGET_UNDER_TEST>
APOL1 G1 (Homo sapiens, UniProt O14791, I384M/S342G)

>  <IC90>
< 50 nM

$$$$
>  <COMPOUND>
C[C@H]1C[C@@]2(C[C@@H](c3cn(Cc4ccc(O)cc4)nn3)N1)OC[C@@H](O)c1cc(Cl)sc12 [Compound 259]

>  <TARGET_UNDER_TEST>
APOL1 G1 (Homo sapiens, UniProt O14791, I384M/S342G)

>  <IC90>
50 to 500 nM

$$$$
>  <COMPOUND>
C[C@H]1C[C@@]2(C[C@@H](c3cc(C4CCOCC4)[nH]n3)N1)OCCc1cc(Cl)sc12 [Compound 114]

>  <TARGET_UNDER_TEST>
APOL1 G1 (Homo sapiens, UniProt O14791, I384M/S342G)

>  <IC90>
50 to 500 nM

$$$$
>  <COMPOUND>
COCCOCCn1cc([C@@H]2C[C@]3(C[C@H](C)N2)OCC(F)(F)c2cc(Cl)sc23)nn1 [Compound 340]

>  <TARGET_UNDER_TEST>
APOL1 G1 (Homo sapiens, UniProt O14791, I384M/S342G)

>  <IC90>
50 to 500 nM

$$$$
>  <COMPOUND>
C[C@H]1C[C@@]2(C[C@@H](c3ncc(C(F)(F)F)[nH]3)N1)OCCc1cc(Cl)sc12 (racemic) [Compound 165]

>  <TARGET_UNDER_TEST>
APOL1 G1 (Homo sapiens, UniProt O14791, I384M/S342G)

>  <IC90>
> 500 nM

$$$$

Prompt: Please give the measured IC90 for this compound: C[C@H]1C[C@@]2(C[C@@H](c3cn(CC4CCOC4)nn3)N1)OC[C@@H](O)c1cc(Cl)sc12 (stereo partly shown) [Compound 269]
Completion: 50 to 500 nM

Prompt: Please give the measured IC90 for this compound: C[C@H]1C[C@@]2(C[C@@H](c3cnc(N(C)C)nc3)N1)OCCc1cc(Cl)sc12 (racemic) [Compound 75]
Completion: < 50 nM

Values compiled from patent EP4810040A2.
